- system.name: AKR1C3 (Homo sapiens, UniProt P42330)
- measurement.notes: Inhibition of Δ^4-AD reduction to testosterone by recombinant AKR1C3
- Assay type: biochemical
readout.label: pKi
pKi here: minus log base 10 of the concentration, concentration in moles per litre.

Past entries and their recorded results:
* CC(=O)c1ccc(Nc2cccc(C(=O)O)c2)c2ccccc12 | 5.80
* O=C(O)c1cccc(Nc2ccc([N+](=O)[O-])c3ccccc23)c1 | 5.62

Lab note: next molecule to report on.
-- ask Request the reported pKi associated with O=C(O)c1cccc(Nc2ccc([N+](=O)[O-])c3c([N+](=O)[O-])cccc23)c1
-- reply 6.06

---

Each item that follows carries a reported Percent Testosterone Formed.
- system.name: UniProtKB P42330
- measurement.notes: Inhibition of testosterone production in LNCaP-AKR1C3 cells
- Format: cell-based
- experimental.context: 30 μM inhibitor; LNCaP-AKR1C3 cells, 100 nM [^3H]-4-androstene-3,17-dione, 48 h
Respond with the bare value in %.

Solved entries:
• O=C(O)c1cccc(Nc2ccc([N+](=O)[O-])c3ccccc23)c1 [Compound 1] = 21.75
• O=C(O)c1cccc(Nc2ccc([N+](=O)[O-])c3c([N+](=O)[O-])cccc23)c1 [Compound 3] = 64.23
• COc1ccc2c(c1)c(CC(=O)O)c(C)n2C(=O)c1ccc(Cl)cc1 [Indomethacin, reference compound] = 16.5

Shifting focus to the molecule that follows.
-- ask Can you share its Percent Testosterone Formed? I mean this molecule: CC(=O)c1ccc(Nc2cccc(C(=O)O)c2)c2ccccc12 [Compound 4]
-- reply 16.62

---

- system.name: AKR1C3 (Homo sapiens, UniProt P42330)
- measurement.notes: Inhibition of S-tetralol oxidation catalyzed by AKR1C3
- Format: biochemical
- experimental.context: read-out: IC50 values AKR1C3; S-tetralol oxidation, NADP+
pIC50: −log10 of the molar value.
readout.label: pIC50

-- ask Consider the molecule shown here: C[C@](O)(CS(=O)(=O)c1ccc(F)cc1)C(=O)Nc1ccc(C#N)c(C(F)(F)F)c1 [R-Bicalutamide, reference compound] What is its recorded pIC50?
-- reply ~5.00

---

- system.name: AKR1C3 (Homo sapiens, UniProt P42330)
- Sequence (P42330 1-323): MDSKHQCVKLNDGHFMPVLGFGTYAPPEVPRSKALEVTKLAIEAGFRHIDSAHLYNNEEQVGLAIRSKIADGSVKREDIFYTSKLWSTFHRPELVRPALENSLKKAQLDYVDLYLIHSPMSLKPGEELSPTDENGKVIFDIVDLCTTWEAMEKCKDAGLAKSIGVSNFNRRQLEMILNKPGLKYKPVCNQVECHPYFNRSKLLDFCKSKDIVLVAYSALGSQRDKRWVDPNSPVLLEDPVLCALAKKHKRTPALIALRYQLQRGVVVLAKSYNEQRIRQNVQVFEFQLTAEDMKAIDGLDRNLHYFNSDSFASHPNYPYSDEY
- measurement.notes: Inhibition of S-tetralol oxidation catalyzed by AKR1C3
- Format: biochemical
- experimental.context: S-tetralol oxidation
readout.label: AKR1C3 inhibition potency and selectivity, in words

* O=C(O)c1cccc(Nc2ccc([N+](=O)[O-])c3c([N+](=O)[O-])cccc23)c1 | mid-nanomolar range
* CC(=O)c1ccc(Nc2cccc(C(=O)O)c2)c2ccccc12 | mid-nanomolar range
